Recorded measurements of EC50, one per entry
Molecular target: UniProtKB P35414
Sequence (P35414 whole entry): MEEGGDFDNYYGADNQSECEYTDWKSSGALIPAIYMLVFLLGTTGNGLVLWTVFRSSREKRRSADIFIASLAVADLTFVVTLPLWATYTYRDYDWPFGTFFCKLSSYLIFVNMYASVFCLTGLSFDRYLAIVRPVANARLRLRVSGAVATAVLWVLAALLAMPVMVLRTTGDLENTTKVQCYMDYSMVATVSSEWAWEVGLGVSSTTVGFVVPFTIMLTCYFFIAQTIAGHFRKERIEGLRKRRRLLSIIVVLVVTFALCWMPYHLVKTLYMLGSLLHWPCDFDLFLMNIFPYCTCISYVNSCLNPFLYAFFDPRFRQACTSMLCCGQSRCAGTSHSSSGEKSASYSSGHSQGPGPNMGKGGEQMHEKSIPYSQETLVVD
Assay: hAPJ Calcium Flux Assay
Assay type: cell-based
Details: Chem-5 APJ stable cells, FLIPR calcium flux stimulation; read-out: hAPJ Ca^2+ Flux EC50
Where a SMILES comes first, the peptide text is derived from it. [ ]: non-standard residue; d: D form. Cha = N[C@@H](CC1CCCCC1)C(=O)O; pGlu = O=C1CC[C@@H](C(=O)O)N1; dNle = CCCC[C@@H](N)C(=O)O; dNva = CCC[C@@H](N)C(=O)O
The reply should be a number in nM, with the unit left off.

Example entries begin here.
[[record]]
compound = "CC(C)C[C@H](NC(=O)[C@H](CCCNC(=N)N)NC(=O)[C@@H]1CCCN1C(=O)[C@H](CCCNC(=N)N)NC(=O)[C@@H]1CCC(=O)N1)C(=O)N[C@H](C)C(=O)N[C@@H](Cc1c[nH]cn1)C(=O)N[C@@H](CCCCN)C(=O)NCC(=O)N1CCC[C@H]1C(=O)N[C@H](Cc1ccccc1)C(=O)N[C@H](C)C(=O)N[C@H](Cc1ccccc1)C(=O)O [Example 57, pE-R-P-R-L-a-H-K-G-P-f-a-f-OH] ([pGlu]RPRL[dA]HKGP[dF][dA][dF]-OH)"
test_result = 1.5

[[record]]
compound = "CCCC[C@@H](NC(=O)[C@@H]1CCCCN1C(=O)CNC(=O)[C@H](CCCCN)NC(=O)[C@H](Cc1c[nH]cn1)NC(=O)[C@@H](C)NC(=O)[C@H](CC(C)C)NC(=O)[C@H](CCCNC(=N)N)NC(=O)[C@@H]1CCCN1C(=O)[C@H](CCCNC(=N)N)NC(=O)[C@@H]1CCC(=O)N1)C(=O)N[C@H](C)C(=O)N[C@H](Cc1ccccc1)C(=O)O [Example 1, pE-R-P-R-L-a-H-K-G-Pip-nle-a-f-OH]"
test_result = 2.3

[[record]]
compound = "CCCC[C@@H](NC(=O)[C@@H]1CCCN1C(=O)CNC(=O)[C@H](CCCCN)NC(=O)[C@H](Cc1c[nH]cn1)NC(=O)[C@@H](CCC)NC(=O)[C@H](CC1CCCCC1)NC(=O)[C@H](CCCNC(=N)N)NC(=O)[C@@H]1CCCN1C(=O)[C@H](CCCNC(=N)N)NC(=O)[C@@H]1CCC(=O)N1)C(=O)N[C@H](C)C(=O)N[C@H](Cc1ccccc1)C(=O)O [Example 63, pE-R-P-R-Cha-nva-H-K-G-P-nle-a-f-OH] ([pGlu]RPR[Cha][dNva]HKGP[dNle][dA][dF]-OH)"
test_result = 9.4

[[record]]
compound = "CCCC[C@@H](NC(=O)[C@@H]1CCCN1C(=O)CNC(=O)[C@H](CCCCN)NC(=O)[C@H](Cc1c[nH]cn1)NC(=O)[C@@H](CO)NC(=O)[C@H](CC(C)C)NC(=O)[C@H](CCCNC(=N)N)NC(=O)[C@@H]1CCCN1C(=O)[C@H](CCCNC(=N)N)NC(=O)[C@@H]1CCC(=O)N1)C(=O)N[C@H](C)C(=O)N[C@H](Cc1ccccc1)C(=O)O [Example 12, pE-R-P-R-L-s-H-K-G-P-nle-a-f-OH] ([pGlu]RPRL[dS]HKGP[dNle][dA][dF]-OH)"
test_result = 0.9


From here, focus on the item given below.
## Input UniProtKB P35414 / EC50 / CCCC[C@H](NC(=O)[C@@H]1CCCN1C(=O)CNC(=O)[C@H](CCCCN)NC(=O)C(C)(C)NC(=O)[C@H](CO)NC(=O)[C@H](CC(C)C)NC(=O)[C@H](CCCNC(=N)N)NC(=O)[C@@H]1CCCN1C(=O)[C@H](CCCNC(=N)N)NC(=O)[C@@H]1CCC(=O)N1)C(=O)N1CCC[C@H]1C(=O)N[C@H](Cc1ccccc1)C(=O)O [Example 41, pE-R-P-R-L-S-Aib-K-G-P-Nle-P-f-OH] : value?
## Output 4.5

Where do these numbers come from? They come from patent US8921307B2.
